Assay: Biotin-PGE2 ELISA (PGE2-biotinamide binding to captured IgG)
Conditions: Biotin-PGE2 5 μM
Below, each of the molecules is paired with its reported Binding to PGE2-Biotinamide (OD450) value.

K1B: human anti-PGE2 antibody from PROfusion mRNA display; VH SEQ ID NO 5, VL SEQ ID NO 9 (antibody, V domains shown) VH: EVQLVQSGAEVKRPGASVKVSCKTSGYTFTNYDINWVRLAPGQGLEWMGCMNPTTGKTGYAQKFQGRVTMTRDTTIATAYMELSRLTSEDTAVYYCARGRGYSPGYGVAYADYWGQGTLVTVSS VL: DIQLTQSPSSLPASVGDRVTITCRASQSISTYLNWYQQTPGKAPSLLIYAASSLQSGVPSRFSGSGSGTDFTLTISSLQPEDFATYYCQQSYSPPPTFGGGTKVEIKR
0.67
K3A: human anti-PGE2 antibody from PROfusion mRNA display; VH SEQ ID NO 13, VL SEQ ID NO 17 (antibody, V domains shown) VH: EVQLVQSGAETKKPGASVEVSCKASGYSFTEYGISWVRQAPGQGPEWMGCISPYNGKLHYAQEFQGRVTMTTGTSTNTAYMELGSLRSDDTAVYYCARGGFSFYDSSGYYYVTDHWGQGTLVTVSS VL: DIRLTQSPSSLSASVGDRVTITCRASQSIGSYLNWYQQKSGKAPKLLIYAASKLQSGVPSRFSGSGFGTDFTLTISSLQPEDSATYYCQQSDTTPFTFGQGTKLEIKR
0.67

Then there is this molecule:
Request: Query (molecule): K7H: human anti-PGE2 antibody from PROfusion mRNA display; VH SEQ ID NO 21, VL SEQ ID NO 24 (antibody, V domains shown) VH: EVQLVQSGSELKKPGASVKVSCKASGYSFTEYGISWVRQAPGQGPEWMGCISPYNGKLHYAQKFLGRVTMTTDTSTNTAYMELRSLKSDDTAVYYCARGGFSSYDSSGYYYVTDHWGQGTLVTVSS VL: DIRLTQSPSSLPASVGDRVTITCRASQSISTYLNWYQQTPGKAPSLLIYAASSLQSGVPSRFSGSGSGTDFTLTISSLQPEDFATYYCQQSYSPPPTFGGGTKVEIKR ; field requested: Binding to PGE2-Biotinamide (OD450)
Result: 0.13
